Numbers sourced from PubChem BioAssay AID1159580.

- testName: chemical genetic growth profiling, strain panel (AID 1159580);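 further: tested at 20 µM; growth read once vehicle control cultures reached saturation at 30 °C; 1 = growth at the plate median or of vehicle wells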
- experimentalContext: S. cerevisiae deletion strains, growth OD, locus YPL204W, strain HRR25, hits give low values
Out of some 5,500 compounds screened, about 2,000 (36%) were called active. Not shown: some 18% with an inconclusive outcome. The list shows a part of the results.
observable: normalized growth
Give bare numbers.

Could I get normalized growth for every one of these entries?
1. Cc1ccc(C(=O)O/N=C(/N)CSc2ncccc2C(F)(F)F)cc1
2. COc1ccc(C2CC(c3ccccc3)=Nc3ccccc3S2)cc1OC (configuration not stated)
3. N/C(CSc1ccc(Cl)cc1)=N/OC(=O)c1ccc(C(F)(F)F)cc1

OUT:
0.994
0.948
0.786

For each entry beneath this line, provide reported normalized growth.
1. Cc1nc(-c2ccc(C(F)(F)F)cn2)[nH]c(=O)c1Cl
2. O=C1Nc2ccccc2/C1=N/N=C\c1cc(Br)cc(Br)c1O
3. CC(C)CSc1nnc(CSCc2nc(-c3ccc(Cl)cc3)cs2)n1C

OUT:
0.777
0.199
0.917

Dear colleague, could you send me normalized growth for each of the items below? Thanks.
1. N#CCCCCOc1ccc2c(=O)cc(-c3ccccc3)oc2c1
2. Cc1csc2ncnc(N/N=C\c3ccccc3Cl)c12

OUT:
1. 0.943
2. 0.936

I have 2 compounds here; please give me normalized growth for each one.
1. C#Cc1cccc(N=Cc2cc(Cl)cc(Br)c2O)c1
2. N=c1ccc2nc3c(Cl)c4c(c(Cl)c3oc-2c1S(=O)(=O)O)Nc1ccc(N)c(S(=O)(=O)O)c1O4

OUT:
1. 0.13
2. 1

For every item in the list below, what is its measured normalized growth?
1. Cc1cc(C(=O)O/N=C(/N)CSc2ncccc2C(F)(F)F)no1
2. CC(O)(CNCc1ccc(Cl)cc1)CSc1ccccc1Cl (configuration not stated)

OUT:
[1.01, 0.923]

* * *

- testName: chemical genetic growth profiling, strain panel (AID 1159580)
- experimentalContext: S. cerevisiae deletion strains, growth OD, locus YHR013C, strain ard1
About 2,000 (36%) of roughly 5,500 compounds were called active. Another 18% or so got no clear call; they are omitted. No stated cut-off is given here; in the data, active means normalized growth mostly below about 0.91 (no sharp cut-off); inconclusive means no clear call, values can overlap the other calls; inactive means mostly above about 0.92. The list shows a part of the results.
The reply should name one outcome from active, inactive

CC[C@]12C=CCN3CC[C@@]4(c5ccc(OC)cc5N(C)C4[C@@](O)(C(=O)OC)[C@@H]1OC(C)=O)[C@@H]32 (stereo not given in full)    inactive
S=c1ccss1    active
NC(=O)CC[C@@H](N)C(=O)O    inactive
COc1ccc(-c2cc(=O)c3cc(OC)ccc3o2)cc1    inactive
COC(=O)C1=C(C)NC(C)=C(C(=O)OCCN(C)Cc2ccccc2)C1c1cccc([N+](=O)[O-])c1 (stereo not given)    inactive

IN: Test call, this compound: `CC1=NCCc2c1[nH]c1cc(O)ccc21`
OUT: inactive

IN: Outcome? `Nc1nnc(-c2cccc(Cl)c2Cl)c(N)n1`
OUT: inactive

IN: Identify the outcome logged in this assay for the compound shown: COc1cc([C@@H]2c3cc4c(cc3C(O[C@@H]3O[C@@H]5CO[C@@H](c6cccs6)OC5[C@H](O)[C@H]3O)C3COC(=O)[C@@H]32)OCO4)cc(OC)c1O (stereo not given in full)
OUT: inactive

IN: Test call for this compound, please: `COC(=O)C1=C(C)NC(C)=C(C(=O)OC)C1c1ccccc1[N+](=O)[O-]`
OUT: active

IN: # lookup: test call for `COc1ccc(-c2cc(=O)c3c(OC)c(OC)c(OC)c(OC)c3o2)cc1`
OUT: inactive

* * *

- testName: chemical genetic growth profiling, strain panel (AID 1159580)
- experimentalContext: S. cerevisiae deletion strains, growth OD, locus YJL168C, strain set2, hits give low values
In all, about 5,500 compounds went through this assay and about 2,000 (36%) were called active. Not shown: some 18% with an inconclusive outcome. This is one part of the list.
Note to self: normalized growth under 1 means Y, ties and anything higher get N.

Example entries begin here.
COc1ccc(-c2cc(=O)c3c(OC)cccc3o2)cc1    N
COc1cccc(-c2cc(=O)c3ccc(OC)cc3o2)c1    N
Cc1cc(=O)c2c(O)c3c(cc2o1)OCC(C)CC3 (stereo not drawn)    Y

IN: Is the reported normalized growth for `Cc1cc(=O)c2c(O)c3c(cc2o1)OC(C)(C)CC3` strictly below 1?
OUT: Y

IN: Please indicate whether the reported normalized growth of C[C@@H]1CC[C@@]2(OC1)OC1C(O)C3C4CC[C@H]5C[C@H](O[C@@H]6O[C@H](CO)[C@H](O[C@@H]7O[C@H](CO)[C@@H](O)[C@H](O[C@@H]8OC[C@@H](O)[C@H](O)[C@H]8O)[C@H]7O[C@@H]7O[C@H](CO)[C@H](O)[C@H](O[C@@H]8O[C@H](CO)[C@@H](O)[C@H](O)[C@H]8O)[C@H]7O)[C@H](O)[C@H]6O)[C@H](O)C[C@]5(C)C4CC[C@]3(C)C1[C@@H]2C (stereo partly drawn) is strictly below 1.
OUT: Y

IN: is_below(normalized growth, 1) for `COc1ccc(-c2cc(=O)c3ccccc3o2)cc1OC` ?
OUT: N

IN: Strictly below 1: is that where normalized growth of `CCCCCCCCCCCCCCCC[n+]1ccccc1` sits?
OUT: Y

IN: Criterion: normalized growth strictly below 1. Is it met by `O=c1c(-c2ccc(O)cc2)coc2cc(O)cc(O)c12` ?
OUT: N

IN: Could you please tell me whether normalized growth recorded for C=CCCCCCCCCCCCC(O)CC(O)CO (stereo not drawn) (tested in a mixture with another compound) is less than 1?
OUT: Y

IN: Please let me know if `CC1=CCc2c(cc3oc(C)cc(=O)c3c2O)OC1` shows normalized growth below 1.
OUT: Y

IN: Dear colleague, could you confirm whether normalized growth of `O=C(O)/C=C(\CC(=O)O)C(=O)O` falls below 1? Thanks.
OUT: Y

* * *

- testName: chemical genetic growth profiling, strain panel (AID 1159580);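 further: tested at 20 µM; growth read once vehicle control cultures reached saturation at 30 °C; 1 = growth at the plate median or of vehicle wells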
- experimentalContext: S. cerevisiae deletion strains, growth OD, locus YLR221C, strain rsa3, hits give low values
The whole screen tested about 5,500 compounds, of which about 2,000 (36%) were called active. Not shown: some 18% with an inconclusive outcome. The list shows a part of the results.
observable: normalized growth
Answers are plain numbers.

As a guide, the following entries are already answered.
CC(C)(C)C(=O)C(Oc1ccc(Cl)cc1)n1cncn1 (configuration not stated)    0.118
O=C(O)/C=C(\CC(=O)O)C(=O)O    0.976
C[N+]1(CCCCC[N+]2(C)CCCC2)CCCC1    1
CCCCCCCCCc1ccc(O)cc1    0.0526
COc1cccc(-c2cc(=O)c3ccc(OC)cc3o2)c1    0.91

Need normalized growth for each of these compounds.
1. O=c1c2ccccc2[se]n1-c1ccccc1
2. COc1ccc(C(=O)/C=C/c2ccccc2)cc1
3. O=c1c(-c2cc(O)c(O)c(O)c2)coc2cc(O)c(O)c(O)c12
4. C/C(=C\C(=O)OCCCCCCCCC(=O)O)C[C@@H]1OC[C@H](C[C@@H]2O[C@H]2[C@@H](C)[C@H](C)O)[C@@H](O)[C@H]1O
5. CC1(C)O[C@@H]2CC3C4C[C@H](F)C5=CC(=O)C=C[C@]5(C)[C@@]4(F)[C@@H](O)C[C@]3(C)[C@]2(C(=O)CO)O1 (some centres not stated)
6. CC(C)(Oc1ccc(Cl)cc1)C(=O)O

OUT:
1. 0.061
2. 0.809
3. 0.981
4. 0.982
5. 1.02
6. 0.981

// for each compound in input: emit normalized growth
1. C=CCCCCCCCCCCCC(O)CC(O)CO (configuration not stated)
2. CC[C@]12C=CCN3CC[C@@]4(c5ccc(OC)cc5N(C)C4[C@@](O)(C(=O)OC)[C@@H]1OC(C)=O)[C@@H]32 (some centres not stated)
3. CN1CCN2c3ccccc3Cc3ccccc3C2C1 (configuration not stated)
4. NCC(=O)CCC(=O)O
5. O=c1oc2ccccc2c(O)c1Cc1c(O)c2ccccc2oc1=O

OUT:
[0.998, 0.999, 0.993, 1.03, 0.994]

* * *

- testName: chemical genetic growth profiling, strain panel (AID 1159580);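 further: tested at 20 µM; growth read once vehicle control cultures reached saturation at 30 °C; 1 = growth at the plate median or of vehicle wells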
- experimentalContext: S. cerevisiae deletion strains, growth OD, locus YNL250W, strain rad50
The campaign covered roughly 5,500 compounds. About 2,000 (36%) were called active. Not shown: some 18% with an inconclusive outcome. Rule as the data show it: active = normalized growth mostly below about 0.91 (no sharp cut-off); inconclusive = no clear call, values can overlap the other calls; inactive = mostly above about 0.92. Some of the results follow.
Log the outcome using a class from true (1) for active, false (0) for inactive

IN: Short answer needed: outcome of this test for CCOC(=O)C1C(C=C(C)C)C1(C)C (stereo not drawn) ?
OUT: false (0)

* * *

For each entry below, report its normalized growth value.
- testName: chemical genetic growth profiling, strain panel (AID 1159580);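 further: tested at 20 µM; growth read once vehicle control cultures reached saturation at 30 °C; 1 = growth at the plate median or of vehicle wells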
- experimentalContext: S. cerevisiae deletion strains, growth OD, locus YNL128W, strain TEP1, hits give low values
In all, about 5,500 compounds went through this assay and about 2,000 (36%) were called active. Inconclusive results (about 18%) are left out. The list shows a part of the results.
One number for each entry.

Consider the following illustrative entries.
Cn1nnnc1SCC1=C(C(=O)O)N2C(=O)C(NC(=O)C(O)c3ccccc3)C2SC1 (configuration not stated)    1.03
NCCc1cccc(O)c1    1.03
CC(N)Cc1ccc(O)cc1 (configuration not stated)    0.99

Give one value of normalized growth per listed compound.
1. CC(=O)Oc1cc(OC(C)=O)c2c(=O)c(-c3ccccc3)coc2c1
2. CC(C)C[C@H](NC(=O)C1OC1C(=O)O)C(=O)NCCCCN=C(N)N (some centres not stated)
3. Cc1cc(=O)c2c(O)c3c(cc2o1)OC(C)(C)CC3

OUT:
1.03
0.998
1

Answer for every listed entry: what is its normalized growth? The entries follow.
1. C#CCOS(=O)OC1CCCCC1Oc1ccc(C(C)(C)C)cc1 (configuration not stated)
2. O=C(O)C1CN(CCCP(=O)(O)O)CCN1 (configuration not stated)
3. O=c1c(-c2ccc(O)cc2)coc2cc(O)cc(O)c12
4. CC(=O)c1csc(-c2ccc(C(F)(F)F)cc2)n1
5. CCCCC1C(=O)N(c2ccccc2)N(c2ccccc2)C1=O
6. CC1=CCc2c(cc3oc(C)cc(=O)c3c2O)OC1

OUT:
1: 1.02; 2: 1.02; 3: 1.06; 4: 0.99; 5: 0.99; 6: 0.881
